The entries below are paired with their reported CP hemolysis IC50.
subject of test: Human C3 (Complement tech cat #A113c) (human, UniProt P01024 23-1663)
Sequence (P01024 23-1663 limits assumed): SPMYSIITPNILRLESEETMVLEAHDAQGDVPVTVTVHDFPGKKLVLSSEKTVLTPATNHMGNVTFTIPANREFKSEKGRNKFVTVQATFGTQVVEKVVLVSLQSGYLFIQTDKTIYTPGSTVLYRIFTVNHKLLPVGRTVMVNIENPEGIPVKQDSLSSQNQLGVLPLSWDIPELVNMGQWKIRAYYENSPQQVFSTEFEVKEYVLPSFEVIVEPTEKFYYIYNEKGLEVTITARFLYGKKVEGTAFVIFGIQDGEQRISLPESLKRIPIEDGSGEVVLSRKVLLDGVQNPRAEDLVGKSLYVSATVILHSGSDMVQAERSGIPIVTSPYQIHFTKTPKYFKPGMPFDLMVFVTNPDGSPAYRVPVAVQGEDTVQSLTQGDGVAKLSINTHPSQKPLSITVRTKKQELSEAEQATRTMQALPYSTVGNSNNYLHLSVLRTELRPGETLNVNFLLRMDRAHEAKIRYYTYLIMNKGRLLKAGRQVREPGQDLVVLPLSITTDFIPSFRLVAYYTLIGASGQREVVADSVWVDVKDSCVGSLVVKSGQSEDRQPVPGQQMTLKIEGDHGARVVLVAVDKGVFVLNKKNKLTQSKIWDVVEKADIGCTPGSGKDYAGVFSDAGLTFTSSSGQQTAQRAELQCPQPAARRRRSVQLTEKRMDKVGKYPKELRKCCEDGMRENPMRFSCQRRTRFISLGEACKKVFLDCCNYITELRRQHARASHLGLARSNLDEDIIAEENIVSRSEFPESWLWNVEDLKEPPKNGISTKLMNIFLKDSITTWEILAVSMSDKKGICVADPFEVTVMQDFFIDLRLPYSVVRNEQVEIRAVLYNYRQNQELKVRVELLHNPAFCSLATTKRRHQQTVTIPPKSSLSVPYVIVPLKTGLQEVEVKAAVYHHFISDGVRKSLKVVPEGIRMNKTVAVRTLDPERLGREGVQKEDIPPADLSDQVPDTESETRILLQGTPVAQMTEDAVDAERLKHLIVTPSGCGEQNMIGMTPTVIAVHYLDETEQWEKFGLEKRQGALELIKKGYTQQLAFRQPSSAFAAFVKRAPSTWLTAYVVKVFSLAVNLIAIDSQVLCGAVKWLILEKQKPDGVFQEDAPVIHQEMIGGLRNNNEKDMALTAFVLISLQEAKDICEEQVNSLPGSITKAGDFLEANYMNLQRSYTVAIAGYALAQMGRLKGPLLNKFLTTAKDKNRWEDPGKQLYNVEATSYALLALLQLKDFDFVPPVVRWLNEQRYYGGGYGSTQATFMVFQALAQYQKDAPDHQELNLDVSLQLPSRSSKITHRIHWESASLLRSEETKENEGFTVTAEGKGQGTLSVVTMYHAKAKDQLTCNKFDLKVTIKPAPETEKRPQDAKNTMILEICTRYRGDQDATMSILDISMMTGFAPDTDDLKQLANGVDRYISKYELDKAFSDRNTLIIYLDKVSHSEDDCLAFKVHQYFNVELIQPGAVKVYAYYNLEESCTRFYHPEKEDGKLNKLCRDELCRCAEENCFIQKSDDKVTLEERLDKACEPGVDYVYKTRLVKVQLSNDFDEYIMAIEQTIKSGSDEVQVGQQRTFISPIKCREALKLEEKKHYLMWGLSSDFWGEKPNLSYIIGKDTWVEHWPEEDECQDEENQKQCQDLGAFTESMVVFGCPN
measurement notes: cell-based or functional assay
Positions of bridges follow the written chain, without caps; N, C: chain ends. Non-standard residues stand in square brackets, D forms with d. Sar = CNCC(=O)O
API: value field is a number in nM; no unit string.

Return value of CP hemolysis IC50 for input Ac-ESSAICVWQDWGEHRCT-NH2 (disulfide 6-16; SMILES CC[C@H](C)[C@H](NC(=O)[C@H](C)NC(=O)[C@H](CO)NC(=O)[C@H](CO)NC(=O)[C@H](CCC(=O)O)NC(C)=O)C(=O)N[C@H]1CSSC[C@@H](C(=O)N[C@H](C(N)=O)[C@@H](C)O)NC(=O)[C@H](CCCNC(=N)N)NC(=O)[C@H](Cc2c[nH]cn2)NC(=O)[C@H](CCC(=O)O)NC(=O)CNC(=O)[C@H](Cc2c[nH]c3ccccc23)NC(=O)[C@H](CC(=O)O)NC(=O)[C@H](CCC(N)=O)NC(=O)[C@H](Cc2c[nH]c3ccccc23)NC(=O)[C@H](C(C)C)NC1=O) [Compound C] , no commentary.
300

Return value of CP hemolysis IC50 for input Ac-ICIWQDWGEHSCT-NH2 (disulfide 2-12; SMILES CC[C@H](C)[C@H](NC(C)=O)C(=O)N[C@H]1CSSC[C@@H](C(=O)N[C@H](C(N)=O)[C@@H](C)O)NC(=O)[C@H](CO)NC(=O)[C@H](Cc2c[nH]cn2)NC(=O)[C@H](CCC(=O)O)NC(=O)CNC(=O)[C@H](Cc2c[nH]c3ccccc23)NC(=O)[C@H](CC(=O)O)NC(=O)[C@H](CCC(N)=O)NC(=O)[C@H](Cc2c[nH]c3ccccc23)NC(=O)[C@H]([C@@H](C)CC)NC1=O) [Compound 20] , no commentary.
59

New cases:
Return value of CP hemolysis IC50 for input Ac-ICIWQDWGEHRCTGAES-NH2 (disulfide 2-12; SMILES CC[C@H](C)[C@H](NC(C)=O)C(=O)N[C@H]1CSSC[C@@H](C(=O)N[C@H](C(=O)NCC(=O)N[C@@H](C)C(=O)N[C@@H](CCC(=O)O)C(=O)N[C@@H](CO)C(N)=O)[C@@H](C)O)NC(=O)[C@H](CCCNC(=N)N)NC(=O)[C@H](Cc2c[nH]cn2)NC(=O)[C@H](CCC(=O)O)NC(=O)CNC(=O)[C@H](Cc2c[nH]c3ccccc23)NC(=O)[C@H](CC(=O)O)NC(=O)[C@H](CCC(N)=O)NC(=O)[C@H](Cc2c[nH]c3ccccc23)NC(=O)[C@H]([C@@H](C)CC)NC1=O) [Compound 15] , no commentary.
47

Return value of CP hemolysis IC50 for input Ac-EGSAICVWQDWGEHRC[Sar]E-NH2 (disulfide 6-16; SMILES CC[C@H](C)[C@H](NC(=O)[C@H](C)NC(=O)[C@H](CO)NC(=O)CNC(=O)[C@H](CCC(=O)O)NC(C)=O)C(=O)N[C@H]1CSSC[C@@H](C(=O)N(C)CC(=O)N[C@@H](CCC(=O)O)C(N)=O)NC(=O)[C@H](CCCNC(=N)N)NC(=O)[C@H](Cc2c[nH]cn2)NC(=O)[C@H](CCC(=O)O)NC(=O)CNC(=O)[C@H](Cc2c[nH]c3ccccc23)NC(=O)[C@H](CC(=O)O)NC(=O)[C@H](CCC(N)=O)NC(=O)[C@H](Cc2c[nH]c3ccccc23)NC(=O)[C@H](C(C)C)NC1=O) [Compound H] , no commentary.
330

Return value of CP hemolysis IC50 for input Ac-ICIWQDWGEHRCS-NH2 (disulfide 2-12; SMILES CC[C@H](C)[C@H](NC(C)=O)C(=O)N[C@H]1CSSC[C@@H](C(=O)N[C@@H](CO)C(N)=O)NC(=O)[C@H](CCCNC(=N)N)NC(=O)[C@H](Cc2c[nH]cn2)NC(=O)[C@H](CCC(=O)O)NC(=O)CNC(=O)[C@H](Cc2c[nH]c3ccccc23)NC(=O)[C@H](CC(=O)O)NC(=O)[C@H](CCC(N)=O)NC(=O)[C@H](Cc2c[nH]c3ccccc23)NC(=O)[C@H]([C@@H](C)CC)NC1=O) [Compound 21] , no commentary.
77

Return value of CP hemolysis IC50 for input Ac-ICVWQDWGSHRCT-NH2 (disulfide 2-12; SMILES CC[C@H](C)[C@H](NC(C)=O)C(=O)N[C@H]1CSSC[C@@H](C(=O)N[C@H](C(N)=O)[C@@H](C)O)NC(=O)[C@H](CCCNC(=N)N)NC(=O)[C@H](Cc2c[nH]cn2)NC(=O)[C@H](CO)NC(=O)CNC(=O)[C@H](Cc2c[nH]c3ccccc23)NC(=O)[C@H](CC(=O)O)NC(=O)[C@H](CCC(N)=O)NC(=O)[C@H](Cc2c[nH]c3ccccc23)NC(=O)[C@H](C(C)C)NC1=O) [Compound B] , no commentary.
360
